- target.under.test: hErbB3.mmh (soluble monomeric human ErbB3 extracellular domain with C-terminal myc-myc-hexahistidine tag) (human, UniProt P21860 20-642)
- Sequence (P21860 other isoform, or with tags, fused parts or gaps): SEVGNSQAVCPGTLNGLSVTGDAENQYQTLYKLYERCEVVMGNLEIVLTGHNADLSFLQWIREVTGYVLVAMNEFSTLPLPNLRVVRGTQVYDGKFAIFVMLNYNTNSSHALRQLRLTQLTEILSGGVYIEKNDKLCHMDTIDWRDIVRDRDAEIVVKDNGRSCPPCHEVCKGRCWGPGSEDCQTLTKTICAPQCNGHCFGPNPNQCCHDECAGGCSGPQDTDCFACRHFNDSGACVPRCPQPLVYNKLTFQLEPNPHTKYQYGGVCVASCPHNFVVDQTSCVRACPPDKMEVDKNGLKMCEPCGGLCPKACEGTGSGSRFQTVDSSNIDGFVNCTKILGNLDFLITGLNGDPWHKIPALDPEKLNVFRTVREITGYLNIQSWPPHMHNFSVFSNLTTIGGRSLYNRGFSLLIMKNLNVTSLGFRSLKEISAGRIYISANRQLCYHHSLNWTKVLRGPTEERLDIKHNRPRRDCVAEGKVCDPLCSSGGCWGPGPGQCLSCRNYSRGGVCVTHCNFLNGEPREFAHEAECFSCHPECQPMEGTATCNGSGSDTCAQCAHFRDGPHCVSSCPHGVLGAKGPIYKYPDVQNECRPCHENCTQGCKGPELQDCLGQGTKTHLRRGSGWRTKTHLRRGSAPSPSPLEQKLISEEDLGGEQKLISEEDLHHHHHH
- experiment.description: SPR (Biacore), 25 C, mAb capture format
readout.label: T½ (h)
Please state the figure in h; there is no need to write the unit.

Reference set, count: 2
# binder, T½ / h
rows = [
    ("H4H2151P (antibody, V domains shown, Fully human, human IgG4 Fc (H4H prefix)) VH: QVQLVESGGGVVQPGRSLRLSCAASGFTFSNYGMHWVRQAPGKGLEWVARIWYDGSNKYYADSVKGRFTISRDSSKNTLYLQMNSLRAEDTAVYYCAREGEQNLDYYPLDVWGQGTTVTVSS VL: DIVMTQSPSSLSASVGDRVTITCRASQDIRNDLGWYQQKPGKAPKLLIYAASSLQTGVPSRFSGSVSGTDFTLTISSLQPEDFATYYCLQDYTYPLTFGGGTKVEIK", 6.2),
    ("H4H2098P (antibody, V domains shown, Fully human, human IgG4 Fc (H4H prefix)) VH: QVQLVESGGGVVQPGRSLRLSCAASGFTFSSFGMHWVRQAPGKGLEWVAVIWYVEINKYHADSVKGRFTISRDDSKNTVYLQMNSLRAEDTAVYYCARDWNDGDYGMDVWGQGTTVTVSS VL: DIQLTQSPSFLSASVGDRVTITCWASQGISSFLAWYQQKAGKAPRLLIYAASTLQTGVPSRFSGSGSGTEFTLTISSLQPGDFATYHCQQLNSYPYTFGQGTKLEIKR", 2.25),
]

In: Looking for the measured T½ of H4H2148P (antibody, V domains shown, Fully human, human IgG4 Fc (H4H prefix)) VH: EVQLVESGGGLVHPGRSLRLSCAASGFTFDDYAMHWVRQSPGKGLEWVSGISWNSVIKHSTDSVRGRFTISRDNAKNSLYLQMNSLKPEDTAFYYCAKDEDDWNYLDYWGQGTLVTVSS VL: DIQMTQSPSSVSASVGDRVTITCRASQDINSWLAWYQQKPGKAPKLLIYTSSNLQSGVPSRFSGSGSGTDFTLTISSLQPEDFATYYCQQSDSFPFTFGPGTKVDIKR , can you help?
Out: 5.12

In: Looking for the measured T½ of H1M1940N (antibody, V domains shown, Hybridoma chimeric antibody: human variable domains, mouse constant domains (H1M prefix, mouse Fc)) VH: QVQVVESGGGVVQPGRSLRLSCAASGFTFSDYGMHWVRQAPGKGLEWVAIISYDGSNKYYADSVKGRFTVSRDNSKNTLYLQLDSLRPEDAAVFYCAREGAFNLDYYAMDVWGQGTTVTVSS VL: AIQMTQSPSSLSASVGDRVTITCRASQDIRNDLGWYQQKPGKAPNLLIYAASSLQSGVPSRFSGSGSGTDFTLTISSLQPEDFATYYCLQDSNYPLTFGGGTKVEIK , can you help?
Out: 1.4

In: Looking for the measured T½ of H4H2084P (antibody, V domains shown, Fully human, human IgG4 Fc (H4H prefix)) VH: QVQLVESGGGVVQSGKSLRLSCVASGFTFSNYGMHWVRQTPGKGLEWVARIWFDGTNKYYTDSVKGRFTLSRDSSKNTLYLQMNSLRAEDTAVYFCAREESLELDHYVMDVWGQGTTVTVSS VL: AIQMTQSPSSLSASVGDRVTITCRASQDIRDDLGWFQQKPGKAPNLLIYAASSLQSGVPSRFSGSGSGTDFTLTISSLQPEDFATYYCLQDYNYPLTFGGGTKVEIKR , can you help?
Out: 2.98

In: Looking for the measured T½ of H4H2114P (antibody, V domains shown, Fully human, human IgG4 Fc (H4H prefix)) VH: QVQLVESGGGVVQPGRSLRLSCAASGFTFSSYGMHWVRQAPGKGLEWVAGMSYDGSSKYYEDSVKGRFTISRDNSKNTLNLQMNSLRVEDTAVYYCAKERDYVEYVDSYYGMDVWGQGTTVTVSA VL: AIQMTQSPSSLSASVGDRVTITCRASQGIRNDLGWYQQKPGKAPKVLIYAASSLQSGVPSRFSGSGSGTVFTLTISSLQPEDFATYYCLQDYNYPLTFGGGTKVEIKR , can you help?
Out: 1.8

// data source = patent US20140072563A1
